All figures here come from BindingDB's records for doi:10.1016/0960-894X(95)00494-E.

- target.of.assay: Xaa-Pro dipeptidase (Sus scrofa)
- experimental.protocol: Inhibitory activity against porcine kidney prolidase
reported.endpoint: Ki (nM)
Kindly provide the numeric value in nM only, without the unit symbol.

Reported Ki for NCC(=O)[C@@H]1CCC[C@H]1C(=O)O : what is it?
270
